test: Volume of distribution at steady state in rat at 3 mg/kg, iv; format: ADME, organism-based; set-up: dose 3 mg/kg, route intravenous; details: in vivo, read-out: Vdss
ENDPOINT NAME: Vd (L/kg)
Numbers only, in L/kg.

Reported Vd ( `N#Cc1ccc(COc2cc3n(n2)CCCC3)nc1` ) = 1.1

---

assay: Kinetic solubility of the compound in DMSO at pH 1; format: physicochemical; conditions: read-out: Kinetic_solubility
Kindly state solubility kinetic for each of the entries shown.
Numbers only, in µg/mL.

Example cases with answers are listed next.
* c1ccc(-c2cc3n(n2)CCCC3)nc1 | 170
* Clc1cccc(-c2cc3n(n2)CCCC3)c1 | 110
* N#Cc1ccc(COc2cc3n(n2)CCCC3)nc1 | 160
* O=C(Nc1ccc(F)cn1)c1cc2n(n1)CCCC2 | 100

Now for the compound whose solubility kinetic we want.
Reported solubility kinetic ( `N#Cc1ccc(CC(=O)c2cc3n(n2)CCCC3)nc1` ) = 80

---

test: Intrinsic clearance in human microsomes measured per mg of protein; type: ADME, Microsome
Kindly state log10(microsomal CLint) for each of the entries shown.
The figures below represent log10 of microsomal CLint, where microsomal CLint is stated in µL/min/mg.

* O=C(Nc1ccc(F)cn1)c1cc2n(n1)CCCC2 | 1.49
* Clc1cccc(-c2cc3n(n2)CCCC3)c1 | 2.59
* N#Cc1ccc(COc2cc3n(n2)CCCC3)nc1 | 1.93

Please give log10(microsomal CLint) for each item listed below.
1. N#Cc1ccc(NC(=O)c2cc3n(n2)CCCC3)nc1
2. c1ccc(-c2cc3n(n2)CCCC3)nc1

[1.92, 1.99]

Please give log10(microsomal CLint) for each item listed below.
1. N#Cc1ccc(CC(=O)c2cc3n(n2)CCCC3)nc1
2. N#Cc1ccc(CC(=O)c2nn3c(c2Cl)CCCC3)nc1

1.66
1.90

---

test: Clearance in rat at 3 mg/kg, iv; assay type: ADME, organism-based; design: dose 3 mg/kg, route intravenous; settings: in vivo
ENDPOINT NAME: clearance (mL/min/kg)
Answers are plain numbers, in mL/min/kg.

Reported clearance ( `N#Cc1ccc(COc2cc3n(n2)CCCC3)nc1` ) = 72

---

assay: Half life in rat at 3 mg/kg, iv; format: ADME, organism-based; parameters: dose 3 mg/kg, route intravenous; conditions: in vivo
ENDPOINT NAME: half-life
// return the numeric value with its unit appended

Reported half-life ( `N#Cc1ccc(COc2cc3n(n2)CCCC3)nc1` ) = 12 min

---

experiment: Cmax in rat plasma at 30 mg/kg, sc; assay type: ADME, organism-based; set-up: dose 30 mg/kg, route subcutaneous
ENDPOINT NAME: Cmax (ng/mL)
Answers are plain numbers, in ng/mL.

Reported Cmax ( `N#Cc1ccc(COc2cc3n(n2)CCCC3)nc1` ) = 2900

---

Kindly state pIC50 for each of the entries shown.
target: Metabotropic glutamate receptor 5 (Rattus norvegicus, UniProt P31424); test: Negative allosteric modulation of rat mGluR5 receptor expressed in HEK293 cells assessed as intracellular calcium flux after 170 seconds by FLIPR assay; type: functional, cell-based; conditions: read-out: IC50
Sequence (P31424 whole entry): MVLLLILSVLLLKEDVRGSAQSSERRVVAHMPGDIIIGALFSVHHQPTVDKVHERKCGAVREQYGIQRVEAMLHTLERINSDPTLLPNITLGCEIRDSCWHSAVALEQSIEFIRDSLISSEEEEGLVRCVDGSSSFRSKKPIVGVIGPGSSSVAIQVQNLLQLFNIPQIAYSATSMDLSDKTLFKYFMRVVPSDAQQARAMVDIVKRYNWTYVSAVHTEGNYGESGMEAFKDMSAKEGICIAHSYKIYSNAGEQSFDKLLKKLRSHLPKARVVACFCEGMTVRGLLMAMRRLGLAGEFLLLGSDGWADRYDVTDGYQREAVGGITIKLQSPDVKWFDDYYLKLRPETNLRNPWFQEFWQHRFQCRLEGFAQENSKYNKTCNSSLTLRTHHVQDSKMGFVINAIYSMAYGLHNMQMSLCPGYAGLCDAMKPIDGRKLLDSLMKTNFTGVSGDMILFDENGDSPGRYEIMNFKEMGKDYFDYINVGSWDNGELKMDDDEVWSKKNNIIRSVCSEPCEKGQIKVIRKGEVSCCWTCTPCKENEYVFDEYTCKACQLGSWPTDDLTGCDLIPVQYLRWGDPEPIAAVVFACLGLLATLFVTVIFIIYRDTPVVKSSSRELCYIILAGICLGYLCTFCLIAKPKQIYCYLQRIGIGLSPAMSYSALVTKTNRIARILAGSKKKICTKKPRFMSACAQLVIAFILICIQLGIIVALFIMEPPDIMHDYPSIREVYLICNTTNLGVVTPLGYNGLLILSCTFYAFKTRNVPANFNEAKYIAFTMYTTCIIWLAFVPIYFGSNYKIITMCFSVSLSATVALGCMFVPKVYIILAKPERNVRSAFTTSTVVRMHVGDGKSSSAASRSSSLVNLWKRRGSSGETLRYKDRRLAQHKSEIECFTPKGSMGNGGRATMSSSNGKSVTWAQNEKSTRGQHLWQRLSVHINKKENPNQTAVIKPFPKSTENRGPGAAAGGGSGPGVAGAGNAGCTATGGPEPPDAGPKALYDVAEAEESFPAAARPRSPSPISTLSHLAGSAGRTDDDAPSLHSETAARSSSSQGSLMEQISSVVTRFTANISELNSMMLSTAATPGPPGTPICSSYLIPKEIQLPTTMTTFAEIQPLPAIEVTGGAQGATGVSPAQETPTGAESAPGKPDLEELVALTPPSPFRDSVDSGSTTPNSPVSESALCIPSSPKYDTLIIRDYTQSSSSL
Give bare numbers, as −log10 of the molar value.

Example cases with answers are listed next.
* Clc1ccc(-c2cc3n(n2)CCCC3)cc1 | 5.37
* c1ccc(-c2cc3n(n2)CCCC3)nc1 | 5.89
* COc1cccc(-c2cc3n(n2)CCCC3)c1 | 5.35
* O=C(Nc1ccc(Cl)cn1)c1cc2n(n1)CCCC2 | 6.58
* Clc1ccnc(-c2cc3n(n2)CCCC3)c1 | 6.17

Please give pIC50 for each item listed below.
1. Clc1cccc(-c2cc3n(n2)CCCC3)c1
2. O=C(Nc1ccccn1)c1cc2n(n1)CCCC2
3. O=C(Cc1ccccn1)c1cc2n(n1)CCCC2
4. Clc1cccc(COc2cc3n(n2)CCCC3)n1
5. N#Cc1ccc(NC(=O)c2cc3n(n2)CCCC3)nc1
6. Cc1ccnc(-c2cc3n(n2)CCCC3)c1
7. Cc1cc(C(=O)Nc2ccc(C#N)cn2)nn1C

7.11
6.44
6.41
5.23
7.05
5.51
5.58
